# assayed target: GSK3A (Homo sapiens, UniProt P49840)
# Sequence (P49840 whole entry): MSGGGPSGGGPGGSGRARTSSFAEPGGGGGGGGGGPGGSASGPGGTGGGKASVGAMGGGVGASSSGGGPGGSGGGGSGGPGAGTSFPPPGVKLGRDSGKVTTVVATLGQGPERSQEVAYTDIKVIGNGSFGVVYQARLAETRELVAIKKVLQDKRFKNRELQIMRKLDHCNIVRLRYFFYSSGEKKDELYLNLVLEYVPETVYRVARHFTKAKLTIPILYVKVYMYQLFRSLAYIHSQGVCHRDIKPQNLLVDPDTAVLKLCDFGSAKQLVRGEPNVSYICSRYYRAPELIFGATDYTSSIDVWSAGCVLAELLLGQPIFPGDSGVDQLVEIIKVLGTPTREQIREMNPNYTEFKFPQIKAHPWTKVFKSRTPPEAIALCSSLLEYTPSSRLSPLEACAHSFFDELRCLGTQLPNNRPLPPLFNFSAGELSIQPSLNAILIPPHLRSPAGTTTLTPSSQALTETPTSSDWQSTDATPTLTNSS
# procedure text: NanoBRET cellular target engagement assay, Nanoluc-GSK3A in HEK293 cells
# study conditions: NanoBRET GSK3α IC50, HEK293 cells, tracer K-8, 2 hours, 37° C
pIC50: −log10 of the molar value.
Listing of recorded pIC50 by entry.

>  <compound>
CC1CCC(c2cccc(NC(=O)c3c(N)ncn(-c4c(Cl)cccc4Cl)c3=O)c2)N1 (single isomer, unassigned)

>  <pIC50>
8.33

$$$$
>  <compound>
CNCc1cncc(NC(=O)c2c(N)ncn(-c3c(C)cc(C(F)F)cc3C)c2=O)c1

>  <pIC50>
8.14

$$$$
>  <compound>
CCOc1cc(Cl)c(-n2cnc(N)c(C(=O)Nc3cncc(C(N)CC(F)F)c3)c2=O)c(Cl)c1 (single isomer, unassigned)

>  <pIC50>
8.39

$$$$
>  <compound>
CCOc1cc(Cl)c(-n2cnc(N)c(C(=O)Nc3cncc(CNCCS(C)(=O)=O)c3)c2=O)c(Cl)c1

>  <pIC50>
8.03

$$$$
>  <compound>
CCNCc1cccc(NC(=O)c2c(N)ncn(-c3c(C)cc(C(F)F)cc3Cl)c2=O)c1 (atropisomer, axis not shown)

>  <pIC50>
8.39

$$$$
>  <compound>
CCOc1cc(C)c(-n2cnc(N)c(C(=O)Nc3cncc(C4CCC(C)N4)c3)c2=O)c(C)c1 (single isomer, unassigned) [Example 92]

>  <pIC50>
8.17

$$$$
